Counter-ions that a name gives are not always drawn.
measurement name: melting point

Worked examples follow.
> print(dat)
                                   compound         result
1  COc1cc2ccn3c(C(=O)N(C)C(C)(C)C)nc(-c4cccs4)c3c2cc1-c1cnn(C)c1 [Example 17b]  239 to 241 °C
2  COc1cc2c(cc1-c1cccc(N3CCOCC3)c1)-c1c(-c3cccs3)nc(C(=O)N(C)C(C)(C)C)n1CC2    85 to 90 °C
3  COc1cc2ccn3c(C(=O)N(C)C(C)(C)C)nc(-c4cccs4)c3c2cc1C=C(C)C [Example 16e]  121 to 123 °C
4  COc1cc2c(cc1Br)-c1c(-c3cccs3)nc(C(=O)N(C)C(C)(C)C)n1CC2  160 to 161 °C
5  COc1cc2c(cc1NC(=O)c1nccs1)-c1c(-c3cccs3)nc(C(=O)N(C)C(C)(C)C)n1CC2  185 to 186 °C
6  C=CCN1CCN(C(=O)c2nc(-c3cccs3)c3n2CCc2cc(OC)c(OC(C)C)cc2-3)CCC1=O (as salt: salt)  115 to 117 °C

Requested field: melting point. Item: COc1cc2c(cc1C(=O)Nc1nncs1)-c1c(-c3cccs3)nc(C(=O)N(C)C(C)(C)C)n1CC2
154 to 156 °C

Next record, please: CCOc1ccc2c(c1)CCn1c(C(=O)N(C)C(C)(C)C)nc(-c3cccs3)c1-2 [Example 40c]
111 to 112 °C

Next record, please: COc1cc2c(cc1Oc1ccccc1)-c1c(-c3cccs3)nc(C(=O)N(C)C(C)(C)C)n1CC2 [Example 42b]
122 to 126 °C

Hey, just so you know, these numbers are from patent US8071587B2.
